The origin of these recorded values is PubChem BioAssay (NCI).

- System: OVCAR-4 ovarian
- assay-info: NCI-60 one-dose screen, 48 h
- assay-setup: 10 µM
The panel holds about 83,000 compounds, 20% with a hit somewhere; the sample as a whole holds those more often. Calls of active or inactive are those of the source. How the source made its calls: active means growth percent below 10; inactive means the rest.
Outcomes: active, inactive

{"molecule": "CCCOc1ccc(-c2nc(-c3ccc(N)cc3)cs2)cc1", "study-target": "OVCAR-4 ovarian", "assigned-category": "inactive"}
{"molecule": "COc1ccc(C2=C(c3cn(C)c4ccccc34)C(=O)OC2)cc1OC", "study-target": "OVCAR-4 ovarian", "assigned-category": "inactive"}
{"molecule": "CCCCCCSc1ncnc2nc[nH]c12", "study-target": "OVCAR-4 ovarian", "assigned-category": "inactive"}
{"molecule": "Cc1cccc(C[C@H](NC(=O)Nc2ccc(Cl)cc2F)C(=O)N[C@@H]2C(=O)N3C[C@H](OC(=O)CCN(C)C)C[C@H]3C(=O)N3CCCC[C@H]3C(=O)N[C@@H](C)C(=O)N3C[C@H](C)C[C@H]3C(=O)O[C@H]2C)c1", "study-target": "OVCAR-4 ovarian", "assigned-category": "inactive"}
{"molecule": "O=[N+]([O-])c1cccc(N=NNc2cccc([N+](=O)[O-])c2)c1", "study-target": "OVCAR-4 ovarian", "assigned-category": "inactive"}
{"molecule": "CCOC(=O)c1nn(C2CCCCO2)c2ccc(NC(=O)CN3CCOCC3)cc12 (stereo not given)", "study-target": "OVCAR-4 ovarian", "assigned-category": "inactive"}
{"molecule": "Oc1c(CNCCNCc2cc(Cl)cc(Cc3ccccc3)c2O)cc(Cl)cc1Cc1ccccc1", "study-target": "OVCAR-4 ovarian", "assigned-category": "inactive"}
{"molecule": "O=C(NCCCNC(=O)OCc1ccc2c(Br)cc(Br)c(O)c2n1)OCc1ccc2c(Br)cc(Br)c(O)c2n1", "study-target": "OVCAR-4 ovarian", "assigned-category": "active"}
{"molecule": "COc1ccc(-c2cc(-c3ccccc3)nc(NCCNc3ccnc4cc(Cl)ccc34)n2)cc1", "study-target": "OVCAR-4 ovarian", "assigned-category": "active"}
{"molecule": "CCN1c2ccccc2C(Cl)(c2ccc(N(C)C)cc2)c2ccccc21", "study-target": "OVCAR-4 ovarian", "assigned-category": "inactive"}
{"molecule": "Cc1ccc(N)c(O)c1", "study-target": "OVCAR-4 ovarian", "assigned-category": "inactive"}
{"molecule": "CCCCCCCCCN(CCCCCCCCC)C(C)C(=O)c1ccc2cc(Br)c3ccccc3c2c1 (stereo not given)", "study-target": "OVCAR-4 ovarian", "assigned-category": "inactive"}
{"molecule": "O=C(NNc1ccc(-c2ccccc2)nn1)c1ccc(F)cc1", "study-target": "OVCAR-4 ovarian", "assigned-category": "inactive"}
{"molecule": "CC1(C)S[C@@H]2[C@H](NC(=O)[C@H](C(=O)O)c3cccs3)C(=O)N2[C@H]1C(=O)O", "study-target": "OVCAR-4 ovarian", "assigned-category": "inactive"}
{"molecule": "Fc1ccc(NC(=S)c2ccccc2)cc1", "study-target": "OVCAR-4 ovarian", "assigned-category": "inactive"}
{"molecule": "Nc1nc(SCc2cccc([N+](=O)[O-])c2)c2[nH]cnc2n1", "study-target": "OVCAR-4 ovarian", "assigned-category": "inactive"}
{"molecule": "COc1ccc2nc3cc(Cl)ccc3c(Nc3ccc(O)c(CN4CCCC4)c3)c2c1", "study-target": "OVCAR-4 ovarian", "assigned-category": "active"}
{"molecule": "O=C(Nc1cc(F)cc2cccnc12)c1cnc(N2CCNCC2)cn1", "study-target": "OVCAR-4 ovarian", "assigned-category": "inactive"}
{"molecule": "N#CC1C(=O)NC(c2ccccc2[N+](=O)[O-])c2sc3c(F)cccc3c21 (stereo not given)", "study-target": "OVCAR-4 ovarian", "assigned-category": "active"}
{"molecule": "c1ccc(-c2nc(N3CCCNCC3)c3nc(-c4ccccc4)oc3n2)cc1", "study-target": "OVCAR-4 ovarian", "assigned-category": "inactive"}
